Source of measurements: the supplement of paper PMC10567573

B1: RTN1 (parent)
chain: VVAYLALAALSATISFRIYKSVLQ

Variants of: B1
Assay: protein stability index of a GFP-peptide fusion (GPS, HEK-293T) (PSI 1-6); higher = more stable;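 note: lentivirally expressed fusions sorted by FACS into six bins by GFP to DsRed ratio, PSI derived from sequencing read proportions per bin multiplied by bin number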
Details: c terminus: a fixed tail appended
The variants listed here are annotated with their protein stability index.
Give the figure only, with no unit attached.

# annotated cases, reported protein stability index shown
- V1T: 2.62
- A3G: 1.88
- T13Y: 1.86
- V22K: 4.89
- A9P: 3.77

Looking up Q24T , I found its protein stability index recorded as 2.08
